Where do these numbers come from? They come from PubChem BioAssay (NCI).

Recorded TGI by entry
- Test system: TK-10 renal
- test_summary: NCI tumour cell line growth inhibition, 48 h
Value expressed in µM; do not type the unit.

* Cc1cc(C(=O)CSC(=S)SC(C)(C)C)ccc1Cl | 60

Okay, now this molecule:
Problem: // lookup TGI for Cc1ccc2c(c1)c1ccc3c(c1n2C)C(=O)C=CC3=O
Solution: 3.76

* * *

- System: SNB-19 CNS
- test_summary: NCI tumour cell line growth inhibition, 48 h
Recorded TGI by entry

Below, 3 compounds whose answers are already recorded.
* CC(=O)N/C(=C\c1ccccc1/C=C(\NC(C)=O)c1nc2cc(C)c(C)cc2[nH]1)c1nc2cc(C)c(C)cc2[nH]1 | > 100 µM
* C[N+](C)(C)CC(=O)N/N=C(/Cc1cc(=O)oc2cc(O)ccc12)C(=O)Nc1ccc(Cl)cc1 | > 100 µM
* COc1ccc(-c2cc(=O)oc3c4c(ccc23)OCN(Cc2ccc(F)cc2)C4)cc1 | 36.4 µM

Problem: Give TGI (SNB-19 CNS) of the following compound: FC(F)(F)c1ccc2nc(NCc3ccccc3)c(-c3ccccc3)nc2c1
Solution: > 100 µM

Problem: Give TGI (SNB-19 CNS) of the following compound: CC(C)C1CN(C(=O)OCc2ccccc2)C2N1C(=O)C2(C)OCc1ccccc1 (stereo not given)
Solution: > 100 µM

Problem: Give TGI (SNB-19 CNS) of the following compound: [N-]=[N+]=NC1(c2ccccc2)C(=O)c2cccc3c2N(CCC3)C1=O (stereo not given)
Solution: > 100 µM

Problem: Give TGI (SNB-19 CNS) of the following compound: NC(N)=Nc1nc2ccccc2o1
Solution: > 100 µM

Problem: Give TGI (SNB-19 CNS) of the following compound: O=C1N(Cc2ccccc2)C2CSCC2N1Cc1ccccc1 (stereo not given)
Solution: > 100 µM

Problem: Give TGI (SNB-19 CNS) of the following compound: O=C1C/C(Br)=C\c2ccccc2-c2ccccc21
Solution: 19.5 µM

Problem: Give TGI (SNB-19 CNS) of the following compound: CCOC(=O)Cc1csc(Nc2ccccc2[N+](=O)[O-])n1
Solution: > 100 µM

* * *

- Test system: MOLT-4 leukemia
- test_summary: NCI tumour cell line growth inhibition, 48 h
measure: TGI

- [N-]=[N+]=CC(=O)OC(CCl)CCl: > 100 µM

Problem: // lookup TGI for CC12c3ccccc3C(OC=O)(c3ccccc31)C1(C)c3ccccc3C2(OC=O)c2ccccc21
Solution: 68.5 µM

Problem: // lookup TGI for CN(Cc1cnc2nc(N)nc(N)c2n1)c1ccc(C(=O)N[C@@H](CCS(=O)(=O)O)C(=O)O)cc1
Solution: > 100 µM

Problem: // lookup TGI for O/N=C1\CCCCC1C(NO)c1ccccc1 (stereo not given)
Solution: > 100 µM

Problem: // lookup TGI for O=c1[nH]c(O)c(C=Nc2ccc(-c3nc4ccccc4o3)cc2)c(=O)[nH]1
Solution: > 100 µM

Problem: // lookup TGI for Cc1cc(C)nc(NC(=S)Nc2ccc([N+](=O)[O-])cc2)c1
Solution: > 100 µM

* * *

Recorded TGI by entry
- Test system: CCRF-CEM leukemia
- test_summary: NCI tumour cell line growth inhibition, 48 h

Below, 5 compounds whose answers are already recorded.
• O=C(NN1C(=O)CS(=O)(=O)C1c1ccc(C(F)(F)F)cc1)c1ccncc1 (stereo unspecified) = > 100 µM
• Clc1sc(Cl)c2c1[C@@H](Cl)C[C@@H]2Br = 88.1 µM
• Nc1c(C(=O)Nc2ccccn2)sc2nc3c(cc12)C(=O)CCC3 = > 100 µM
• COc1cccc2c1OC(c1cccc3ccccc13)C([N+](=O)[O-])=C2 (stereo unspecified) = 2.02 µM
• OC(C#CCN1CCCC1)(c1ccccc1)c1ccccc1Cl (stereo unspecified) = > 100 µM

Okay, now this compound:
Problem: // lookup TGI for CCOC(=O)CNC(=O)NC12CC3CC(CC(C3)C1)C2
Solution: > 550 µM

* * *

- Tested on: MOLT-4 leukemia
- test_summary: NCI tumour cell line growth inhibition, 48 h
Where a SMILES comes first, the peptide text is derived from it. The star is where a group is joined. Palmitoyl = CCCCCCCCCCCCCCCC(=O)*
measure: GI50

Below, 5 compounds whose answers are already recorded.
* Cc1cccc(NC2=C(Cl)C(=O)c3nc(C)ccc3C2=O)c1 | 2.2 µM
* COc1cc2c(cc1OCCCN1CCN(CCCOc3cc4c(cc3OC)C(=O)N3CC(F)(F)C[C@H]3C=N4)CC1)N=C[C@@H]1CC(F)(F)CN1C2=O | 2.02 µM
* C=C(C)[C@@H]1CC[C@]2(CN)CC[C@]3(C)[C@H](CC[C@@H]4[C@@]5(C)CCCNC(C)(C)[C@@H]5CC[C@]43C)[C@@H]12 | 1.93 µM
* CCN(Cc1c(F)cccc1OC)c1ccc(CO)c(Cl)c1 | 17.4 µM
* CCCCCCCCCCCCCCCC(=O)N1CCCC1C(=O)NCC(=O)NC(Cc1ccccc1)C(=O)N1CCCC1C(=O)NC(CO)C(=O)NC(Cc1ccc(O)cc1)C(=O)NC(CCCCN)C(=O)NC(CC(C)C)C(=O)NC(CCCN=C(N)N)C(=O)N1CCCC1C(=O)NCC(N)=O (configuration not stated) (Palmitoyl-PGFPSYKLRPG-NH2; configuration not given here) | 18.6 µM

Problem: // lookup GI50 for C=CC12CCN(CC1)C(C(O)c1ccnc3ccc(OC)cc13)C2 (configuration not stated)
Solution: > 100 µM

Problem: // lookup GI50 for C[C@H](CCOc1cccc(CC(=O)O)c1)N(Cc1cccc(C(F)(F)F)c1Cl)CC(c1ccccc1)c1ccccc1
Solution: 4.95 µM

* * *

- Test system: SK-OV-3 ovarian
- test_summary: NCI tumour cell line growth inhibition, 48 h
Recorded TGI by entry

- CC(C(=O)COCc1ccccc1)P1(=O)OC(C)(C)CN1C(C)(C)C (stereo unspecified): > 100 µM
- CN1CCN(Cc2cc3c(nn2)-c2ccccc2C3=O)CC1: > 100 µM
- COc1cc(OC)c(OC)cc1/C=N/NC(=O)N/N=C/c1cc(OC)c(OC)cc1OC: > 100 µM
- O=C(CNc1ccc(Cl)cc1Cl)Nn1c(-c2ccccc2)nc2ccccc2c1=O: > 100 µM
- Cc1ccsc1/C=N/Nc1cnccn1: > 100 µM
- COC(=O)c1ccccc1CC1Cc2cccc(C)c2C1=O (stereo unspecified): > 100 µM
- CC1=C(C#N)c2nc3ccccc3n2C(=O)C1(C)CCO (stereo unspecified): > 100 µM
- Clc1sc(Cl)c2c1[C@@H](Cl)C[C@@H]2Br: > 100 µM
- COc1cc(C[P+](c2ccccc2)(c2ccccc2)c2ccccc2)cc(OC)c1OC: > 100 µM
- CO/N=C(/C(=O)OC)c1ccccc1COc1ccccc1C(F)(F)F: 91.8 µM

Okay, now this molecule:
Problem: // lookup TGI for Nc1ncnc2c1ccn2C/C=C/CO
Solution: > 100 µM

* * *

- Test system: MDA-N
- test_summary: NCI tumour cell line growth inhibition, 48 h
measure: TGI

Below, 4 compounds whose answers are already recorded.
• O=C1c2cccc3cccc(c23)C(=O)N1CCCNCCCCNCCCNCCCN1C(=O)c2cccc3cccc(c23)C1=O = 2.11 µM
• CC(C)Oc1cccc(N2C(=NCc3c[nH]c4ccccc34)Nc3ccncc3S2(=O)=O)c1 = > 100 µM
• [N-]=[N+]=CC(=O)OC(CCl)CCl = > 100 µM
• CC(C)(C)OC(=O)NC(CSSCC(NC(=O)OC(C)(C)C)C(=O)O)C(=O)O (stereo not given) = > 100 µM

Okay, now this compound:
Problem: // lookup TGI for Clc1ccc(C=NC23CC4CC(CC(C4)C2)C3)c(Cl)c1
Solution: > 10 µM

* * *

- System: MALME-3M melanoma
- test_summary: NCI tumour cell line growth inhibition, 48 h
measure: TGI (µM)
Value expressed in µM; do not type the unit.

Below, 3 molecules whose answers are already recorded.
- O=C(Nc1nc(-c2c[nH]c3ccccc23)cs1)c1n[nH]c(=O)c2ccccc12: 80
- C/C1=C\[C@H](C)C[C@H](C)OC(=O)[C@H](C)NC(=O)[C@@H](Cc2ccc(O)c(Br)c2)N(C)C(=O)[C@H](C)NC(=O)[C@@H](C)C1: 2.32
- COc1cc2c(cc1OCCCN1C(=O)c3cccc4cccc(c34)C1=O)N=C[C@@H]1CCCN1C2=O: 35.1

Okay, now this molecule:
Problem: // lookup TGI for O=c1c2c(no[n+]2[O-])c2ccccc2n1-c1ccccc1
Solution: 14.5

* * *

Recorded TGI by entry
- System: DMS 114 small cell lung
- test_summary: NCI tumour cell line growth inhibition, 48 h

• C=CC1(C)CC(=O)C2(O)C(C)(O1)C(OC(C)=O)C(O)C1C(C)(C)CCC(O)C12C (stereo not given) = > 108 µM
• CCc1c(O)c(O)c(C(C)=O)c2c(O)c(-c3c(C)cc4c(CC)c(O)c(O)c(C(C)=O)c4c3O)c(C)cc12 = 18.4 µM
• COc1ccc(NC(=O)CSc2nnc(-c3ccc(NC(C)=O)cc3)o2)cc1 = 19.3 µM
• CCCCCCCCCCCC[N+]12CC[N+](CCN)(CC1)CC2 = > 100 µM

Okay, now this compound:
Problem: // lookup TGI for CCCN(CCC)c1c([N+](=O)[O-])cc(C(=O)N(CC)CC)cc1[N+](=O)[O-]
Solution: 42.8 µM
